# Substrate: NCCC[C@H](N)C(=O)O
# measurement.notes: purified protein
# measurement.setup: 50 mM Tris pH 8.5, 20 °C, 20 mM NaCl, carbamoyl phosphate 5 mM
observed.property: kcat/Km (M⁻¹ s⁻¹)
Could you give me the number in M⁻¹ s⁻¹? Just the number is fine.

protein	kcat/Km (M⁻¹ s⁻¹)
Escherichia coli ornithine transcarbamoylase (OTC), wild type, His-tagged (enzyme, E. coli, Anabolic ornithine transcarbamoylase of E. coli, argI gene, 333-residue subunit; Expressed from the ASKA plasmid pCA24N; also called WT OTC; anabolic OTC; source: E. coli BL21 (DE3) Tuner, purified (HisTrap FF, Superdex 200 SEC)) SGFYHKHFLKLLDFTPAELNSLLQLAAKLKADKKSGKEEAKLTGKNIALIFEKDSTRTRCSFEVAAYDQGARVTYLGPSGSQIGHKESIKDTARVLGRMYDGIQYRGYGQEIVETLAEYASVPVWNGLTNEFHPTQLLADLLTMQEHLPGKAFNEMTLVYAGDARNNMGNSMLEAAALTGLDLRLVAPQACWPEAALVTECRALAQQNGGNITLTEDVAKGVEGADFIYTDVWVSMGEAKEKWAERIALLREYQVNSKMMQLTGNPEVKFLHCLPAFHDDQTTLGKKMAEEFGLHGGMEVTDEVFESAASIVFDQAENRMHTIKAVMVATLSK	830000

For the next question, use this protein.
Qu. Entry Escherichia coli ornithine transcarbamoylase (OTC) variant D231A, His-tagged (enzyme, E. coli, Anabolic ornithine transcarbamoylase of E. coli, argI gene, 333-residue subunit; Made by site-directed mutagenesis of the ASKA pCA24N plasmid; 6x-His tag not cleaved; source: E. coli BL21 (DE3) Tuner, purified (HisTrap FF, Superdex 200 SEC)) SGFYHKHFLKLLDFTPAELNSLLQLAAKLKADKKSGKEEAKLTGKNIALIFEKDSTRTRCSFEVAAYDQGARVTYLGPSGSQIGHKESIKDTARVLGRMYDGIQYRGYGQEIVETLAEYASVPVWNGLTNEFHPTQLLADLLTMQEHLPGKAFNEMTLVYAGDARNNMGNSMLEAAALTGLDLRLVAPQACWPEAALVTECRALAQQNGGNITLTEDVAKGVEGADFIYTAVWVSMGEAKEKWAERIALLREYQVNSKMMQLTGNPEVKFLHCLPAFHDDQTTLGKKMAEEFGLHGGMEVTDEVFESAASIVFDQAENRMHTIKAVMVATLSK has what kcat/Km?
Ans. 1400
